test system: Streptococcus pyogenes SSI-9; assay: Antibacterial activity assay of bead-derived peptides (three concentrations); type: cell-based; parameters: key: +++: inhibition by the 640-fold diluted peptide solution; ++: inhibition by the 160-fold diluted solution; +: inhibition by the 40-fold diluted solution; -: no inhibition; conditions: S. pyogenes, bead-derived peptide solution, three concentrations
Where a SMILES comes first, the peptide text is derived from it. [ ]: non-standard residue; d: D form. The star is where a group is joined. NHCH2CH2OH = OCCN*; For = O=C*

>  <molecule>
CNC(=O)C[C@@H](NC(=O)[C@@H](NC(=O)[C@H](NC(=O)[C@H](C)NC(=O)[C@@H](CC(C)C)NC(=O)[C@H](C)NC(=O)CNC(=O)[C@@H](NC=O)C(C)C)C(C)C)C(C)C)C(=O)N[C@@H](Cc1c[nH]c2ccccc12)C(=O)N[C@@H](C(=O)N[C@@H](Cc1c[nH]c2ccccc12)C(=O)N[C@H](CC(C)C)C(=O)N[C@@H](Cc1c[nH]c2ccccc12)C(=O)N[C@@H](C(=O)N[C@@H](Cc1c[nH]c2ccccc12)C(=O)NCCO)C(C)C)C(C)C [compound 9521] (For-VGA[dL]A[dV]V[dD](NHMe)W[dV]W[dL]W[dV]W-NHCH2CH2OH)

>  <antibacterial activity>
-

$$$$
>  <molecule>
CC(C)C[C@@H](NC(=O)[C@H](C)NC(=O)[C@H](NC(=O)[C@H](C)NC(=O)CNC(=O)[C@@H](NC=O)C(C)C)C(C)C)C(=O)N[C@H](C(=O)N[C@@H](C(=O)N[C@@H](Cc1c[nH]c2ccccc12)C(=O)N[C@H](CC(C)C)C(=O)N[C@@H](Cc1c[nH]c2ccccc12)C(=O)N[C@@H](C(=O)N[C@@H](Cc1c[nH]c2ccccc12)C(=O)N[C@@H](C(=O)N[C@@H](Cc1c[nH]c2ccccc12)C(=O)NCCO)C(C)C)C(C)C)C(C)C)C(C)C [compound 6888] (For-VGA[dV]A[dL]V[dV]W[dL]W[dV]W[dV]W-NHCH2CH2OH)

>  <antibacterial activity>
+

$$$$
>  <molecule>
CC(C)C[C@@H](NC(=O)[C@H](Cc1c[nH]c2ccccc12)NC(=O)[C@@H](CC(C)C)NC(=O)[C@@H](NC(=O)[C@H](NC(=O)[C@H](C)NC(=O)[C@H](NC(=O)[C@H](C)NC(=O)CNC(=O)[C@@H](NC=O)C(C)C)[C@H](C)O)C(C)C)C(C)C)C(=O)N[C@@H](Cc1c[nH]c2ccccc12)C(=O)N[C@H](CC(C)C)C(=O)N[C@@H](Cc1c[nH]c2ccccc12)C(=O)N[C@@H](C(=O)N[C@@H](Cc1c[nH]c2ccccc12)C(=O)NCCO)C(C)C [compound 94] (For-VGA[dT]A[dV]V[dL]W[dL]W[dL]W[dV]W-NHCH2CH2OH)

>  <antibacterial activity>
-

$$$$
>  <molecule>
CC(C)C[C@@H](NC(=O)[C@H](C)NC(=O)CNC(=O)[C@@H](NC=O)C(C)C)C(=O)N[C@@H](C)C(=O)N[C@@H](C(=O)N[C@H](C(=O)N[C@@H](C(=O)N[C@@H](Cc1c[nH]c2ccccc12)C(=O)N[C@@H](C(=O)N[C@@H](Cc1c[nH]c2ccccc12)C(=O)N[C@@H](C(=O)N[C@@H](Cc1c[nH]c2ccccc12)C(=O)N[C@@H](C(=O)N[C@@H](Cc1c[nH]c2ccccc12)C(=O)NCCO)C(C)C)C(C)C)C(C)C)C(C)C)C(C)C)C(C)C [compound 725] (For-VGA[dL]A[dV]V[dV]W[dV]W[dV]W[dV]W-NHCH2CH2OH)

>  <antibacterial activity>
+

$$$$
